Test system: dopamine D-1 receptor
Details: dopamine = 100; goldfish retina or rat striatum
Where a name gives a salt, the structure may show the parent alone.
measuredMetric: Intrinsic Activity (adenylate cyclase assay)
Please state the value as a number alone, without comment.

Example cases with answers are listed next.
Bench note: what Intrinsic Activity (adenylate cyclase assay) did C=CC[C@H]1Cc2c(ccc(O)c2O)[C@@H](CN)O1 (relative stereo) show? 119

Bench note: what Intrinsic Activity (adenylate cyclase assay) did CCCCC[C@H]1Cc2c(ccc(O)c2O)[C@@H](CNC)O1 (relative stereo) show? 107

Bench note: what Intrinsic Activity (adenylate cyclase assay) did NC[C@@H]1O[C@H](C2CCCCC2)CCc2c1ccc(O)c2O (relative stereo) [Example 176, Hydrochloride] show? 90

***
Bench note: what Intrinsic Activity (adenylate cyclase assay) did NC[C@@H]1O[C@H](CN2Cc3ccccc3C2=O)Cc2c1ccc(O)c2O (relative stereo) show? 54

Bench note: what Intrinsic Activity (adenylate cyclase assay) did NCC1CC2(CCCC2)Cc2c1ccc(O)c2O (centres unmarked) show? 80

Bench note: what Intrinsic Activity (adenylate cyclase assay) did `NCC1=CC2(CCCCCCC2)Cc2c1ccc(O)c2O` show? 58

Bench note: what Intrinsic Activity (adenylate cyclase assay) did NC[C@@H]1C[C@H](C23CC4CC(CC(C4)C2)C3)Cc2c1ccc(O)c2O (relative stereo) show? 83

Bench note: what Intrinsic Activity (adenylate cyclase assay) did CCCC[C@H]1Cc2c(ccc(O)c2O)[C@@H](CNC)O1 (relative stereo) show? 136

----------
Overview of reported pKi across a group of molecules:
Target: dopamine D-2 receptor (Rattus norvegicus)
Sequence (P61169 whole entry): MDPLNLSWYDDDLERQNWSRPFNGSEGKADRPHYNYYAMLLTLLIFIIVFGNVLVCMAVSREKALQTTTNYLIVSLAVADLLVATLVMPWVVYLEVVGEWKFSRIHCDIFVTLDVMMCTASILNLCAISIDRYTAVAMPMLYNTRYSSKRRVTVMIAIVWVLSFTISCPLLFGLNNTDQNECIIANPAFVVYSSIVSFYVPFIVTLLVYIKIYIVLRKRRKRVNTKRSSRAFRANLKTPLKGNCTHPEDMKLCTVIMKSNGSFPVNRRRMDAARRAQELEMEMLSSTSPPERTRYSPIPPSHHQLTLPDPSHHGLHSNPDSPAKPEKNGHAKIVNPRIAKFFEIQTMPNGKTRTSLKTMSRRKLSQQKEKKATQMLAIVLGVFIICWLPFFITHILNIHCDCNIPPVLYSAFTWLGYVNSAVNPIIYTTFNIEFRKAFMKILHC
Assay: biochemical
Type: binding
Settings: rat caudate, [125I]-p-aminophenylethyl spiroperidol; read-out: D-2 Ki
Give only the number. pKi is defined as minus log10 of concentration in molar units.

Form field - read-out: pKi; system: dopamine D-2 receptor (Rattus norvegicus); submitted item: CC(C)(C)c1ccc(OC[C@H]2Cc3c(ccc(O)c3O)[C@@H](CN)O2)cc1 (relative stereo) [Example 57] 6.14

Form field - read-out: pKi; system: dopamine D-2 receptor (Rattus norvegicus); submitted item: COc1ccc(CC2Cc3c(ccc(O)c3O)C(CN)O2)cc1 (stereo not shown) [Example 83] 5.35

----------
Biological target: dopamine D-2 receptor (Rattus norvegicus)
Assay: biochemical
Format: binding
Conditions: rat caudate, [125I]-p-aminophenylethyl spiroperidol; read-out: D-2 Ki
Structures can show the parent of a compound that is named as a salt.
Classify: t when Ki is strictly less than 3 µM; f when Ki is not.

In the record for CC(C)=CCCC(C)[C@@H]1Cc2c(ccc(O)c2O)[C@H](CN)O1 (some centres unmarked) , is Ki less than 3 µM? t

In the record for CCC(=O)Oc1ccc2c(c1OC(=O)CC)CC(c1ccccc1)C=C2CN (centres unmarked) , is Ki less than 3 µM? f

In the record for CN(C)C[C@@H]1O[C@H](C2(C)CCCCC2)Cc2c1ccc(O)c2O (relative stereo) , is Ki less than 3 µM? f

In the record for `NCC1=CC2(CCCCCCCCC2)Cc2c1ccc(O)c2O` , is Ki less than 3 µM? f

In the record for NC[C@H]1Cc2c(ccc(O)c2O)[C@@H](CN)O1 (relative stereo) [Example 154, Dihydrochloride] , is Ki less than 3 µM? f

***
In the record for `Oc1ccc2c(c1O)CC1(CCCCCCCC1)C1=C2CNCC1` , is Ki less than 3 µM? t

In the record for NCC1CC2(CCCCCCCC2)Cc2c1ccc(O)c2O (centres unmarked) , is Ki less than 3 µM? f

In the record for NC[C@H]1O[C@@H](CN2CCCCC2)Cc2c1ccc(O)c2O (relative stereo) , is Ki less than 3 µM? f

In the record for `Oc1ccc2c(c1O)C[C@@H](c1ccccc1)O[C@H]2[C@H]1CCCN1` , is Ki less than 3 µM? f

In the record for NCC1=CC(c2cccc(O)c2)Cc2c1ccc(O)c2O (centres unmarked) , is Ki less than 3 µM? f

In the record for CN1CCC2=C(C1)c1ccc(O)c(O)c1CC2c1ccccc1 (centres unmarked) [Example 247] , is Ki less than 3 µM? t

----------
Tested on: dopamine D-1 receptor
Conditions: dopamine = 100; goldfish retina or rat striatum
Where a name gives a salt, the structure may show the parent alone.
Returns one of Fulfilled or Not fulfilled; Fulfilled when Intrinsic Activity (adenylate cyclase assay) is >= 70.

Exam item: decide whether the reported Intrinsic Activity (adenylate cyclase assay) for Oc1ccc2c(c1O)C[C@H](c1ccccc1)C[C@H]2[C@H]1CCCN1 (relative stereo) [Example 181, Hydrobromide] is at least 70. Not fulfilled

***
Exam item: decide whether the reported Intrinsic Activity (adenylate cyclase assay) for Br.N[C@@H]1CCc2cc(O)c(O)c3c2[C@H]1C[C@H](c1ccccc1)C3 (relative stereo) [Example 182] is at least 70. Not fulfilled

Exam item: decide whether the reported Intrinsic Activity (adenylate cyclase assay) for C=CCNC[C@@H]1O[C@H](C(C)(C)C)Cc2c1ccc(O)c2O [Example 129] is at least 70. Fulfilled

Exam item: decide whether the reported Intrinsic Activity (adenylate cyclase assay) for C=CCNC[C@H]1O[C@@H](C23CC4CC(CC(C4)C2)C3)Cc2c1ccc(O)c2O (relative stereo) [Example 117] is at least 70. Not fulfilled

Exam item: decide whether the reported Intrinsic Activity (adenylate cyclase assay) for NC[C@H]1O[C@@H](CNC(=O)c2ccccc2)Cc2c1ccc(O)c2O (relative stereo) [Example 164] is at least 70. Fulfilled

Exam item: decide whether the reported Intrinsic Activity (adenylate cyclase assay) for CN1CCC2=C(C1)c1ccc(O)c(O)c1CC21CCCC1 [Example 211] is at least 70. Not fulfilled

Exam item: decide whether the reported Intrinsic Activity (adenylate cyclase assay) for NCC1OC2(CCCCCCCC2)Cc2c1ccc(O)c2O (centres unmarked) [Example 221] is at least 70. Fulfilled

----------
Tested on: dopamine D-1 receptor
Details: dopamine = 100; goldfish retina or rat striatum
Counter-ions that a name gives are not always drawn.
measuredMetric: Intrinsic Activity (adenylate cyclase assay)
Please state the value as a number alone, without comment.

Bench note: what Intrinsic Activity (adenylate cyclase assay) did `CNC[C@@H]1O[C@H](C23CC4CC(CC(C4)C2)C3)Cc2c1ccc(O)c2O` show? 81

Bench note: what Intrinsic Activity (adenylate cyclase assay) did NC[C@H]1C[C@@H](c2ccc3ccccc3c2)Cc2c1ccc(O)c2O (relative stereo) show? 70

Bench note: what Intrinsic Activity (adenylate cyclase assay) did CNC[C@@H]1S[C@H](c2ccccc2)Cc2c1ccc(O)c2O (relative stereo) [Example 187, Hydrochloride] show? 70

Bench note: what Intrinsic Activity (adenylate cyclase assay) did C=CCNC[C@@H]1O[C@H](c2ccccc2)Cc2c1ccc(O)c2O (stereo in doubt) show? 82

Bench note: what Intrinsic Activity (adenylate cyclase assay) did Br.NCC1=CC(c2ccccc2)Cc2c1ccc(O)c2O (centres unmarked) show? 56

***
Bench note: what Intrinsic Activity (adenylate cyclase assay) did CCC(=O)Oc1ccc2c(c1OC(=O)CC)CC(c1ccccc1)C=C2CN (centres unmarked) show? 80

Bench note: what Intrinsic Activity (adenylate cyclase assay) did NCC1c2ccc(O)c(O)c2CC(c2ccccc2)C1CCO (centres unmarked) [Example 45, Formic Acid Salt] show? 62

Bench note: what Intrinsic Activity (adenylate cyclase assay) did CNC[C@H]1O[C@@H](CCN)Cc2c1ccc(O)c2O (relative stereo) show? 63

Bench note: what Intrinsic Activity (adenylate cyclase assay) did NC[C@@H]1O[C@H](CCC2CCCCC2)Cc2c1ccc(O)c2O (relative stereo) show? 135

Bench note: what Intrinsic Activity (adenylate cyclase assay) did CCCC(=O)Oc1ccc2c(c1OC(=O)CCC)CC(c1ccccc1)C=C2CN (centres unmarked) show? 42

Bench note: what Intrinsic Activity (adenylate cyclase assay) did Oc1ccc2c(c1O)C[C@H](C1CCCCC1)O[C@@H]2CNC1CC1 (relative stereo) show? 60

Bench note: what Intrinsic Activity (adenylate cyclase assay) did CC(C)(C)CC1Cc2c(ccc(O)c2O)C(CN)O1.Cl (centres unmarked) show? 106

Bench note: what Intrinsic Activity (adenylate cyclase assay) did NCC1OC(CC2CCCC2)Cc2c1ccc(O)c2O (centres unmarked) show? 114

----------
Target: dopamine D-1 receptor (Rattus norvegicus)
Sequence (P18901 whole entry): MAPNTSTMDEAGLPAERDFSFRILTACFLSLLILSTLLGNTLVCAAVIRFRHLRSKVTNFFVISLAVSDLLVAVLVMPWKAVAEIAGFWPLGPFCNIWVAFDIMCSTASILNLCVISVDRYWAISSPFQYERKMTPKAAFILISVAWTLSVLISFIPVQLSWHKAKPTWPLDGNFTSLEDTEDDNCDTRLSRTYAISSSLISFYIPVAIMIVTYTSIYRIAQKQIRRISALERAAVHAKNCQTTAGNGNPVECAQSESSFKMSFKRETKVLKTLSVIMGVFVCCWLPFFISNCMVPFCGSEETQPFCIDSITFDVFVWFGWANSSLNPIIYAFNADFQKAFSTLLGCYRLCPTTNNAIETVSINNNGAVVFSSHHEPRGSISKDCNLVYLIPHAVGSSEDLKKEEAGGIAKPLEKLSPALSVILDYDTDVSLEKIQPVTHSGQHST
Experiment: biochemical
Conditions: D-1 Ki, rat caudate, [125I]SCH-23982
Counter-ions that a name gives are not always drawn.
measuredMetric: pKi
Give only the number. pKi is defined as minus log10 of concentration in molar units.

Bench note: what pKi did CCCC[C@H]1Cc2c(ccc(O)c2O)[C@@H](CNC)O1 (relative stereo) show? 6.74

Bench note: what pKi did CCCCC1Cc2c(ccc(O)c2O)C2=C1CCNC2 (stereo not drawn) show? 7.15

Bench note: what pKi did NCC1=CC(c2cccc(O)c2)Cc2c1ccc(O)c2O (stereo not drawn) show? 6.92

Bench note: what pKi did Cl.NCc1cc(-c2ccccc2)cc2c(O)c(O)ccc12 [Example 46, Hydrochloride] show? 5.77

Bench note: what pKi did Oc1ccc2c(c1O)C[C@@H](c1ccccc1)C[C@H]2[C@H]1CCCN1 (relative stereo) [Example 180, Hydrobromide] show? 5.96

Bench note: what pKi did CC(C)CC1Cc2c(ccc(O)c2O)C(CN)O1 (stereo not drawn) show? 8.52

Bench note: what pKi did NC[C@H]1O[C@@H](CO)Cc2c1ccc(O)c2O (relative stereo) [Example 155, Hydrochloride] show? 5.59

Bench note: what pKi did NC[C@@H]1O[C@H](C2CCCCC2)CCc2c1ccc(O)c2O (relative stereo) [Example 176, Hydrochloride] show? 6.19

Bench note: what pKi did `CN1CCC2=C(C1)c1ccc(O)c(O)c1CC21CCCCCC1` show? 7.30

Bench note: what pKi did NCC1CC2(CCCCCCCCC2)Cc2c1ccc(O)c2O (stereo not drawn) show? 5.19

***
Bench note: what pKi did CC1([C@@H]2Cc3c(ccc(O)c3O)[C@H](CN)O2)CCCCC1 (relative stereo) show? 8.00

Bench note: what pKi did CNC[C@H]1O[C@@H](CC2CCCCC2)Cc2c1ccc(O)c2O (relative stereo) show? 7.22
